target: T1, TRBV5-1 antigenic peptide No. 1 (TQTPRYLIKTRGQQ), peptide alone (Homo sapiens); experiment: ELISA; confirmatory monoclonal phage ELISA; antigens peptide alone, peptide-BSA, peptide-biotin; controls PBS, 10% BSA-PBS, PBS-streptavidin; phage dilution factors 1, 3, 9; details: one partner purified
T1 construct: short form of antigenic peptide No. 1 of the TRBV5-1 segment of the human TCR beta chain; also called Ag1; Peptide N. 1; source: synthetic peptide (Proteogenix)
T1 chain: TQTPRYLIKTRGQQ
Measured ELISA signal at phage dilution factor 3 values are reported for all entries that follow.
Write no unit; give the number alone.

Binder	Observed
scFv clone C10 (scFv, V domains shown, tested as phage clone in the confirmatory monoclonal ELISA; source: phage display clone from the human naive scFv library LiAb-SFMAX (Proteogenix), amplified in E. coli TG1) VH: EVQLVQSGAEVKKPGSSVKVSCKASGGTFSSYAISWVRQAPGQGLEWMGGIIPIFGTANYAQKFQGRVTITADKSTSTAYMELSSLRSEDTAVYYCAREPLRGYSGYDFYYYGMDVWGQGTMVTVSS VL: SYELTQPHSVSGSPGETVTISCAGSGGSIASNYVQWYQQRPGSAPTTLIYEDKVRPSGVPDRFSGSIDYSSDSASLTISGLKTEDEADYYCQSADSTSTYVFGTGTKVTVL	0.75
scFv clone A2 (scFv, V domains shown, tested as phage clone in the confirmatory monoclonal ELISA; source: phage display clone from the human naive scFv library LiAb-SFMAX (Proteogenix), amplified in E. coli TG1) VH: QVQLQQSGPGLVKPSQTLSLTCAISGDSVSSNSAAWNWIRQSPSRGLEWLGRTYYRSKWYNDYAVSVKSRITINPDTSKNQFSLQLNSVTPEDTAVYYCARDQAAAEVYFDYWGQGTLVTVSS VL: NFMLTQPHSVSESPGKTVTISCTRSSGSIASNYLQWYQQRPGSAPTTVIYEDNQRPSGVPDRFSGSIDSSSNSASLTISGLKTEDEADYYCQSYDNRNHWVFGGGTQLTVL	0.91

Now consider a different binder.
The binder scFv clone A5 (scFv, V domains shown, as printed identical to the VH of A2; tested as phage clone in the confirmatory monoclonal ELISA; source: phage display clone from the human naive scFv library LiAb-SFMAX (Proteogenix), amplified in E. coli TG1) VH: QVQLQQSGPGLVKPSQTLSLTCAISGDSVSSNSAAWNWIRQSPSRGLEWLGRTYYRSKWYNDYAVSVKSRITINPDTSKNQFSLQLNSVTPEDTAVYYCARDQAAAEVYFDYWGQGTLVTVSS VL: NFMLTQPHSVSESPGKTVTISCTRSSGSIASNYVQWYQQRPGSSPTTVIYEDNQRPSGVPDRFSGSIDSSSNSASLTISGLKTEDEADYYCQSYDSSNHWVFGGGTKVTVL showed ELISA signal at phage dilution factor 3 equal to 0.37
